Where do the numbers come from? From patent US12509431B2.

tested on: Porcine Atria myofibrils; assay: Myofibril ATPase assay (PK/LDH NADH-coupled), atria myofibrils; assay type: biochemical; details: Table 7
Measure name: Porcine Atria IC25 (µM)

>  <Compound>
C[C@H](NC(=O)CN1Cc2c(ccnc2C(F)(F)F)NC1=O)c1ccc(C#N)cc1F [Compound N74]

>  <Unit spec>
µM

>  <Porcine Atria IC25>
0.54

$$$$

[1] C[C@H](NC(=O)CN1Cc2nc(F)ccc2NC1=O)c1ccc(F)cc1F [Compound N123]
[2] C[C@@H](NC(=O)CN1Cc2nc(F)ccc2NC1=O)c1ncc(F)cc1F [Compound N104]
[3] C[C@H](NC(=O)[C@@H](C)N1Cc2c(ccnc2Cl)NC1=O)c1ccc(F)cc1F [Compound N115]
(Q) List from greatest to least Porcine Atria IC25. Note for the reader: the ranking is given by listing the labels in the order requested.
(A) 3, 2, 1

----------
tested on: Rabbit Skeletal myofibrils (rabbit psoas muscle); test: Myofibril ATPase assay (PK/LDH NADH-coupled), skeletal myofibrils; type: biochemical; details: Table 8
Measure name: Rabbit Psoas IC25 (µM)

>  <Molecule>
CC(NC(=O)CN1Cc2cc(F)ccc2NC1=O)c1ccccc1Br (centres unmarked) [Compound B202]

>  <Rabbit Psoas IC25 [µM]>
0.1741

$$$$
>  <Molecule>
COc1cc(C#N)ncc1[C@@H](C)NC(=O)CN1Cc2c(ccc(F)c2F)NC1=O [Compound B79]

>  <Rabbit Psoas IC25 [µM]>
0.2662

$$$$
>  <Molecule>
C[C@H](NC(=O)CN1C(=O)Nc2ccc(F)c(F)c2C12CC2)c1ncc(C#N)cc1F [Compound B324]

>  <Rabbit Psoas IC25 [µM]>
0.03

$$$$

[1] COc1cccnc1[C@@H](C)NC(=O)CN1Cc2cc(F)ccc2NC1=O [Compound B186]
[2] Cc1cc(F)ccc1[C@@H](C)NC(=O)CN1Cc2cc(F)ccc2NC1=O [Compound B224]
[3] C[C@@H](NC(=O)CN1C(=O)Nc2ccc(F)c(F)c2C12CC2)c1cnc(C#N)cn1 [Compound B314]
[4] C[C@H](NC(=O)CN1Cc2c(ccc(F)c2F)NC1=O)c1ncc(C#N)cc1F [Compound B142]
[5] C[C@H](NC(=O)CN1Cc2cc(F)c(F)cc2NC1=O)c1ccc(C#N)cc1F [Compound B45]
(Q) Ascending by Rabbit Psoas IC25, please: list the molecules accordingly. A ranking is expressed here by listing the labels in the requested order.
(A) 5, 4, 3, 2, 1
(5: 0.0115 µM, 4: 0.02168 µM, 3: 0.12 µM, 2: 3.991 µM, 1: 100 µM)

[P] C[C@@H](C(=O)N[C@H](CO)c1ncc(F)cc1F)N1Cc2c(Cl)cccc2NC1=O [Compound B167]
[Q] Cc1cc(F)cc2c1CN(CC(=O)N[C@H](C)c1ccc(C#N)cc1F)C(=O)N2 [Compound B56]
(Q) Between these two entries, P and Q , state which has the higher Rabbit Psoas IC25. Which one? Tell me its label.
(A) P

[1] C[C@@H](NC(=O)CN1Cc2c(ccc(F)c2F)NC1=O)c1ncc(C2COC2)cn1 [Compound B282]
[2] Cc1cccc2c1C1(CC1)N(CC(=O)N[C@@H]1COc3cc(C#N)cnc31)C(=O)N2 [Compound B299]
[3] Cc1ccnnc1C(C)NC(=O)CN1Cc2c(ccc(F)c2F)NC1=O (single isomer, unassigned) [Compound B25]
(Q) Order these by Rabbit Psoas IC25, descending, and give the full ranking. Provide your answer as the labels ordered per the instruction.
(A) 1, 2, 3
(1: 100.00 µM, 2: 63.22 µM, 3: 4.823 µM)
